- Run description: Permeability of the compound by PAMPA-BBB assay
Experimental endpoint: Papp

Provide the reported Papp of each entry below, same order.
1. COc1cc2c(cc1O)CN1CC[C@@]23C=CC(O)C[C@H]13 (some centres not stated)
2. COc1c2c(cc3c1[C@@]14CCN(C3)[C@@H]1C[C@@H](OC)[C@@H]1O[C@@H]14)OCO2

1: 0.7 ×10⁻⁶ cm/s; 2: 18.3 ×10⁻⁶ cm/s

# credit: ChEMBL document CHEMBL3585247
